- Assay Notes: NCI Yeast Anticancer Drug Screen. Data for the mlh1 rad18 strain (AID 175)
- Condition Info: S. cerevisiae mlh1 rad18 strain growth inhibition; at 50.0 µM
This is part of a sample that, as a whole, favours compounds with a hit. Of some 79,000 tested, about 15% had one in any assay. Active and inactive are the calls of the source. No stated cut-off is given here; in the data, active means growth inhibition above about 70%; inactive means the rest.
Pick from active, inactive when you respond.

Data request: Any idea what this test logged for `CCCCB1OB(CCCC)OB(CCCC)O1` ?
Data returned: inactive

Others:
Data request: Given `CC1(C)OS(=O)(=O)C=C1Br` , state the outcome it received in this test.
Data returned: inactive

Data request: What about `Nc1n[n+](-c2ccc(Cl)cc2)no1` ?
Data returned: active

Data request: Moving on to `C/C(=N\N=Nc1ccc(N(C)C)cc1)c1ccccc1`
Data returned: inactive

Data request: And then `O=C(O)COc1cc(-c2ccccc2)nc2ccc(F)cc12` , what is it?
Data returned: inactive

Data request: Try `CCOC(=O)/C=C(/C)C#N` next.
Data returned: inactive

Data request: Next entry: `COC(=O)[C@@H](CO)NC(=O)OC(C)(C)C`
Data returned: inactive

Data request: Then what about the molecule `CNC(=S)Nc1ccccc1` ?
Data returned: inactive

Data request: Follow-up item: COc1cc2c(c(OC)c1OC)-c1ccc(OC)c(=O)cc1C(NC(=O)c1ccc(N=[N+]=[N-])cc1)CC2 (stereo unspecified)
Data returned: active

Data request: Now consider CC(=O)NC(C)c1ccc(N=NN2CCCC2)cc1 (stereo unspecified) and answer again.
Data returned: inactive

Data request: What about `NC(=O)c1ccc(Cl)cc1` ?
Data returned: inactive

Data request: Then what about the molecule `Cc1nn(-c2ccccc2)c(=O)n2c1nc1ccccc12` ?
Data returned: inactive

Data request: Cool, now O=C(O)CC(NC(=O)OCc1ccccc1)C(=O)OCc1ccccc1 (stereo unspecified)
Data returned: inactive

Data request: Let us now turn to `CCCc1cc(C(=O)N/N=C/c2ccc([N+](=O)[O-])cc2)c2ccccc2n1`
Data returned: inactive

Data request: Let us now turn to `CC(C)=NNC(=O)COCC(=O)NN=C(C)C`
Data returned: inactive

Data request: Another: `CCCCCCCCCCS(C)(=O)=O`
Data returned: inactive

====

- Assay Notes: NCI Yeast Anticancer Drug Screen. Data for the cln2 rad14 strain (AID 165);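 further: 0% = growth equal to vehicle treated cultures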
- Condition Info: S. cerevisiae cln2 rad14 strain, at 50.0 µM
About 79,000 compounds went through this panel and 15% of them were active in at least one assay; those are over-represented in the sample as a whole. Active and inactive are the calls of the source. Rule as the data show it: active = growth inhibition above about 70%; inactive = the rest.
Field 'call' accepts true (1) (active), false (0) (inactive)

Data request: Tell me the assay call for `O=C(O)CCC(=O)Nc1ccccc1C(=O)O` please.
Data returned: false (0)

Continuing:
Data request: So what was the verdict on `Cn1cc([N+](=O)[O-])cc1C(=O)Nc1cc(C(=O)Nc2ccc(S(=O)(=O)O)c3cc(S(=O)(=O)O)ccc23)n(C)c1` in this test?
Data returned: false (0)

Data request: Next: `COC(=O)c1ccc(N(C)CC/C(CNc2nc(N)[nH]c(=O)c2[N+](=O)[O-])=N\NC(N)=O)cc1`
Data returned: false (0)

====

- Assay Notes: NCI Yeast Anticancer Drug Screen. Data for the mec2-1 strain (AID 157)
- Condition Info: S. cerevisiae mec2-1 strain, at 50.0 µM, hits give high values
The panel holds about 79,000 compounds, 15% with a hit somewhere; the sample as a whole holds those more often.
Assign growth inhibition to each entry below.
Numbers only, in %.

Some solved cases for reference:
Data request: Which value of growth inhibition has been reported for `CC#CCN(C(C)C)C(C)C` in the records?
Data returned: 8.3

Data request: Repeat for the following molecule: `CN=C(NN)NS(=O)(=O)c1cc(C)c(Cl)cc1S`
Data returned: -22.8

Data request: Then `O=C(Nc1ccc(Cl)c(Cl)c1)c1ccc(Cl)cc1` ?
Data returned: 11.3

Data request: Same read-out for `COC(=O)/C=C/c1ccc(OP(=O)(O)O)c(OC)c1` ?
Data returned: -8.9

Data request: Also need C=C[C@@H]1C(CO)=CCC2[C@H]1CCC1C(C)(C)C(=O)CC[C@]21C (some centres not stated) , thanks.
Data returned: -13.4

Count: 4. Required value per item: growth inhibition.
1. O=S1(=O)NC(=NC2CCCC2)c2ccccc21
2. CCCCCC1(C=O)C(=O)NC(=O)N1C (configuration not stated)
3. C=C1C[C@]23CC[C@@H]4C(CO)(CO)CC(=O)C[C@]4(C)[C@@H]2C(O)C[C@H]1C3 (some centres not stated)
4. CC(=O)CCc1cccc([N+](=O)[O-])c1

Data returned:
[-12.4, -5.45, 17.9, -5.1]

====

- Assay Notes: NCI Yeast Anticancer Drug Screen. Data for the mec2-1 strain (AID 157)
- Condition Info: S. cerevisiae mec2-1 strain, at 50.0 µM, hits give high values
This is part of a sample that, as a whole, favours compounds with a hit. Of some 79,000 tested, about 15% had one in any assay.
Measured Metric: growth inhibition (%)
Numbers only, in %.

Data request: Fill in the blank: the reported growth inhibition of `Cc1ccc(S(=O)(=O)O/N=C2\CCC\C2=C/c2ccccc2)cc1` is ____.
Data returned: -2.25

Data request: Cool, now `Cc1cc2c(C(C)C)c(O)c(O)c(C=Nc3ccc(-c4ccccc4)cc3)c2c(O)c1-c1c(C)cc2c(C(C)C)c(O)c(O)c(C=Nc3ccc(-c4ccccc4)cc3)c2c1O`
Data returned: -10.4

Data request: # repeat for `CCc1ccc(CC)c(OC)c1`
Data returned: -1.8

Data request: Another compound: CN(C)CCCC1c2ccccc2Oc2ccc(C(F)(F)F)cc21 (centres undefined)
Data returned: -28.4

Data request: Another compound to check: C=CCC(OC(=O)C=C(C)C)c1ccc2c(c1)OCO2 (centres undefined)
Data returned: -31.9

Hi! Can you tell me growth inhibition for each of these compounds?
1. CCC1(C#CCN2C(=O)c3ccccc3C2=O)C=CC2(CC1)OCCO2 (centres undefined)
2. C=C1CC(Cn2cc(C)c(=O)[nH]c2=O)(c2ccc(-c3ccccc3)cc2)OC1=O (centres undefined)
3. C=CCC(C(=C)C)(C(=O)OCC)C(=O)OCC
4. Cc1ccc(NC(=O)Oc2ccc(Br)cc2)c([N+](=O)[O-])c1
5. C=CCC(OCCC)c1ccc2c(c1)OCO2 (centres undefined)
6. C[N+](C)(N)Cc1csc(-c2ccc(Cl)cc2)n1

Data returned:
[18.2, -5.35, -24.6, 16.9, 0.6, -39.3]

====

- Assay Notes: NCI Yeast Anticancer Drug Screen. Data for the mec2-1 strain (AID 157)
- Condition Info: S. cerevisiae mec2-1 strain, at 50.0 µM, hits give high values
About 79,000 compounds went through this panel and 15% of them were active in at least one assay; those are over-represented in the sample as a whole.
Would you mind telling me the reported growth inhibition of each entry?
Answers are plain numbers, in %.

Field: example entries. Status: answers known.
Data request: Which growth inhibition reading was recorded for the molecule CC1(O)c2ccccc2-c2c1n([O-])c1ccccc1[n+]2=O (stereo unspecified) ?
Data returned: -6.2

Data request: Then what about the molecule `Cc1ncc([N+](=O)[O-])n1CCNC(=O)CCn1ccnc1[N+](=O)[O-]` ?
Data returned: -43.7

Data request: For C=C1CC/C=C(\C)C(=O)C(O)C2C1CC2(C)C (stereo unspecified) then?
Data returned: -13.7

// input: 2 molecules below; output: growth inhibition for each
1. CCOC(=O)C1=NN(c2ccccc2)C(=O)/C1=C\n1c(=S)sc2ccccc21
2. OCC1OC(n2c(SCc3ccccc3)nc3ccccc32)C(O)C1O (stereo unspecified)

Data returned:
1: -24.4; 2: 1.45

Data request: What does the record list as growth inhibition for COc1cc(C2SC(N)=Nc3c2c(C)nn3C(=O)c2ccccc2O)ccc1O (stereo unspecified) ?
Data returned: 24.1

====

- Assay Notes: NCI Yeast Anticancer Drug Screen. Data for the bub3 strain (AID 167)
- Condition Info: S. cerevisiae bub3 mutant strain, at 50.0 µM, hits give high values
Compounds without any hit were thinned out: in the full panel of roughly 79,000, 15% have a hit.
Kindly supply the reported growth inhibition values for the records listed here.
One number for each entry, in %.

Data request: Given `Brc1ccncc1` , state its recorded growth inhibition.
Data returned: -21.9

Data request: Consider next the compound `CC(C)(C)OC(=O)N/N=C\c1ccnc2ccccc12` in the same way.
Data returned: -6.5

Data request: What about `O=C1O/C(=C(/Cl)c2cccc3ccccc23)c2ccccc21` ?
Data returned: -16.9

Data request: # repeat for `COc1cc(OC)c(NC(=O)Nc2ccc([N+](=O)[O-])cc2OC)cc1Cl`
Data returned: 1.25

Data request: And then `CC1(C)N=C(C(N)=O)c2ncn(CCO)c2N1` , what is it?
Data returned: -9.95

Data request: Proceed to `Brc1cccc2ccccc12`
Data returned: -12.3

// batch mode: one growth inhibition value per listed entry
1. O=C(Nc1cccc(Cl)c1)C(Br)C(Br)c1ccccc1 (stereo not given)
2. Clc1c2c(nc3ccccc13)CCCC2
3. OC1CNC(=S)NC1
4. CCN=C1Nc2ccccc2-n2c(nn3nc4ccccc4c23)N1CC
5. CCC[N+](CCC)=c1ccc2nc3c(C)cc(N(CC)CC)cc3sc-2c1
6. CCCCCCC(C)OC(=O)CCl (stereo not given)
7. O=C(Nc1ccccc1)n1cc(-c2ccccn2)c(N2CCOCC2)n1

Data returned:
[98.5, 7.65, -5.2, -41, -130, 1.25, -12.9]

Hi! Can you tell me growth inhibition for each of these compounds?
1. Nc1nc(Cl)c2ncn(C3OC(CO)C(O)C3O)c2n1 (stereo not given)
2. CC(=O)OCCOCNC(=S)N/N=C(\C)c1cccs1
3. CCCOc1ccc(OCC(=O)c2ccccc2)cc1

Data returned:
[-5.2, 4.3, 61.5]

// input: 4 compounds below; output: growth inhibition for each
1. CC(=O)OC[C@@H](OC(C)=O)[C@@H](OC(C)=O)[C@H]1OC[C@@H]2C[C@H]([C@H]1OC(C)=O)N(Cc1ccccc1)O2
2. CC(C)(C)NC(=S)N/N=C/c1ccccn1
3. COc1ccc([B-]23OCC[N+]2(CNC(=O)c2ccccc2O)CCO3)cc1 (stereo not given)
4. CC(=O)OC1CCC2(C)C(=CCC3C4CCC(=O)NC4(C)CCC32)C1 (stereo not given)

Data returned:
[-9.8, 89.7, 7.3, 8.4]

Please state growth inhibition for every compound in the list that follows.
1. CC1(COC(=O)C2(C)CO2)CO1 (stereo not given)
2. CCCCCCCCCCS(C)(=O)=O
3. CCCCCOC(=O)c1cccc(C)c1
4. CC(C)Cc1cccc(C(C)C)c1NC(=O)CCC(=O)N/N=C1\C(=N/NC(=O)CCC(=O)Nc2c(C(C)C)cccc2C(C)C)C(c2ccc3c(c2)OCO3)Oc2ccccc21 (stereo not given)

Data returned:
1. -25.2
2. -24.9
3. -1.65
4. 6.75

Data request: Form field: reported growth inhibition of `CCOC(=O)C(NC(=O)Cc1ccccc1)C(=O)OCC`
Data returned: 14.9
